target: EGFR (Homo sapiens (Human), UniProt P00533); assay: ErbB Enzyme Assay (HTRF KinEASE-TK), Assay 3; assay type: biochemical; conditions: EGFR enzyme assay
Sequence (P00533 25-1210): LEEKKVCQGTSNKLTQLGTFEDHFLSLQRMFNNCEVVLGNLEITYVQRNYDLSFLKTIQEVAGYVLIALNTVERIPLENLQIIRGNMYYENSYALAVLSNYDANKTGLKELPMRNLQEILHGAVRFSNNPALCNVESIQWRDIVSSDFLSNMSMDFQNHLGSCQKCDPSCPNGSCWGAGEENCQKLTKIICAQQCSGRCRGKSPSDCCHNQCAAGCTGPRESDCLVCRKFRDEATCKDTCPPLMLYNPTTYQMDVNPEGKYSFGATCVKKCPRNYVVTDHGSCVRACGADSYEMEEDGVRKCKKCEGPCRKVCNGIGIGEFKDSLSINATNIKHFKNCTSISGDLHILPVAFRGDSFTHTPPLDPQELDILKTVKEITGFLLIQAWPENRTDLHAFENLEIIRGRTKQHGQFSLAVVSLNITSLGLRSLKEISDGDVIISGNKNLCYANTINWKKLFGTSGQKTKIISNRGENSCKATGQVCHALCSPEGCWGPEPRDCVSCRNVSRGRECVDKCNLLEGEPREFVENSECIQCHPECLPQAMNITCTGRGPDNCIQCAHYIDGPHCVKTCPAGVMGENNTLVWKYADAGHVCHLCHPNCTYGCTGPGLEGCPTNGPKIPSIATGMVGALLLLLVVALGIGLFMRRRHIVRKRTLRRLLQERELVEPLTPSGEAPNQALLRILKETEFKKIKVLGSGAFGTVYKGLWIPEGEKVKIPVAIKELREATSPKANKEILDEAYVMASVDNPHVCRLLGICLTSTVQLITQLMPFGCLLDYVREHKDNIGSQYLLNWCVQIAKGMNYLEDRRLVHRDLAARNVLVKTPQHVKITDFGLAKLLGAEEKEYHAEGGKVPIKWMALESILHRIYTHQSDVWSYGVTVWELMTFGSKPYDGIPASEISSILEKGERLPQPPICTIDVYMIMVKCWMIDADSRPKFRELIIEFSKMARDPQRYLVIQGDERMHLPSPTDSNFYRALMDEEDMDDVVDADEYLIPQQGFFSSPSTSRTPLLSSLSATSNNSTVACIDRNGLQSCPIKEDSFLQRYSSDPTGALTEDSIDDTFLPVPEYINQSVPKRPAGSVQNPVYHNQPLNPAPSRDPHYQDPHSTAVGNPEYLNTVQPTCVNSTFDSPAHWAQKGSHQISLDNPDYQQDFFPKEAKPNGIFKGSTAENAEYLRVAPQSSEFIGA
Below: a set of entries, each annotated with reported log10 of IC50.
MEASUREMENT_NAME: log10 of IC50 (log10 of the value in nM)

[[record]]
compound = "C=CC(=O)N1C2CCC1CN(c1ccc3ncnc(Nc4ccc(Oc5ccn6ncnc6c5)c(C)c4F)c3n1)C2"
reported_result = 2.58

[[record]]
compound = "C=CC(=O)N1CCC(c2ccc3ncnc(Nc4ccc(Oc5ccn6ncnc6c5)c(C)c4F)c3n2)CC12CC2 (stereo not drawn)"
reported_result = 2.97

[[record]]
compound = "C=CC(=O)N1C[C@H]2C[C@@H]1[C@H](c1ccc3ncnc(Nc4cc(C)c(Oc5cnc6c(c5)ncn6C)cc4F)c3n1)C2"
reported_result = 3.43

[[record]]
compound = "C=CC(=O)N1C[C@H]2CC[C@@H]1C[C@@H]2c1ccc2ncnc(Nc3ccc(Oc4cnc5c(c4)ncn5C)c(C)c3F)c2n1"
reported_result = 3.60

[[record]]
compound = "C=CC(=O)N1CCC(c2ccc3ncnc(Nc4ccc(Oc5cnc6c(c5)ncn6C)c(C)c4)c3n2)CC1"
reported_result = 3.75

[[record]]
compound = "C=CC(=O)N1CCN(c2ccc3ncnc(Nc4ccc(Oc5ccn6ncnc6c5)c(Cl)c4F)c3n2)CC1C(F)F (stereo not drawn)"
reported_result = 1.83

[[record]]
compound = "C=CC(=O)N1CC[C@@H]2C[C@H]1CN2c1ccc2ncnc(Nc3cc(C)c(Oc4ccn5ncnc5c4)cc3F)c2n1"
reported_result = 2.29


* * *

target: ErbB2 WT (Homo sapiens (Human), UniProt P04626); experiment: ErbB Enzyme Assay (HTRF KinEASE-TK), Assay 2; format: biochemical; conditions: ErbB2 WT enzyme assay
Sequence (P04626 23-1255): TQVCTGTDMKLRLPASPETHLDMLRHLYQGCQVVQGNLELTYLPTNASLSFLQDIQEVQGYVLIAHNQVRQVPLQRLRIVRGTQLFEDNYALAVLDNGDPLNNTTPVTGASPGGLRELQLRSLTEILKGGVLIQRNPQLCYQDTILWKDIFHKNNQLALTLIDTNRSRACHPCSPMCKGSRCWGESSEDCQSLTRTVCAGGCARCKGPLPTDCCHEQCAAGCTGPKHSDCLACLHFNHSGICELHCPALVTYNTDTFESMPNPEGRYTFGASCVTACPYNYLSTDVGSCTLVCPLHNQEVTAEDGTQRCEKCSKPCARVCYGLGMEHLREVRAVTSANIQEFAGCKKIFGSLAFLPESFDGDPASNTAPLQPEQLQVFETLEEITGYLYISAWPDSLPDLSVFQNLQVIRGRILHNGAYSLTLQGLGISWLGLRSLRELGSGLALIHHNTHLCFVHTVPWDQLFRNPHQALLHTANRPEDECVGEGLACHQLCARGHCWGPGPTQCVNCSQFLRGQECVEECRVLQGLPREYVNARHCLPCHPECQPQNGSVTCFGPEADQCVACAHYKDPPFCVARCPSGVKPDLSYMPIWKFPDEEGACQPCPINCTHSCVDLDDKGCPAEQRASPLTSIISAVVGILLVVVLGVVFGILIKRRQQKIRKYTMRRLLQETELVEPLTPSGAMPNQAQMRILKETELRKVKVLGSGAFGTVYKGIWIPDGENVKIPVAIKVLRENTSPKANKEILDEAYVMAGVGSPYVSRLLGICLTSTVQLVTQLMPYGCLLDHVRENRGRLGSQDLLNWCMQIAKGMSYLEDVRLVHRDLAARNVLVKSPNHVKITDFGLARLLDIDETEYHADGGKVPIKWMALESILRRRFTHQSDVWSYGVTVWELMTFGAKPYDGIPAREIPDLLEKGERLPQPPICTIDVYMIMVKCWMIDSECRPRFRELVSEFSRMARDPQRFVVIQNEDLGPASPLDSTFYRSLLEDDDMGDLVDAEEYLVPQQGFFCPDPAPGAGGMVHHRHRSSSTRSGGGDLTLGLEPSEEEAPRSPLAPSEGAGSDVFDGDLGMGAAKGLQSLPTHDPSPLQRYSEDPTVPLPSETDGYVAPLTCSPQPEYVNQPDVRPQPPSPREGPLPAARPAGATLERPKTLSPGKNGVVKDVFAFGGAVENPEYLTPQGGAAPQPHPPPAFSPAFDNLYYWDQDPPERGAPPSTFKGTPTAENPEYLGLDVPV
MEASUREMENT_NAME: IC50 (µM)

[[record]]
compound_smiles = "C=CC(=O)N1CCN(c2ccc3ncnc(Nc4ccc(Oc5ccn6ncnc6c5)c(C)c4F)c3n2)C[C@H]1C(C)C"
reported_result = 0.0458

[[record]]
compound_smiles = "C=CC(=O)N1C2CC1CN(c1ccc3ncnc(Nc4ccc(Oc5cnc6c(c5)ncn6C)c(C)c4F)c3n1)C2"
reported_result = 0.352

[[record]]
compound_smiles = "C=CC(=O)N1[C@@H]2CC[C@H]1[C@H](c1ccc3ncnc(Nc4cc(C)c(Oc5ccc6c(c5)ncn6C)cc4F)c3n1)C2"
reported_result = 0.0134

[[record]]
compound_smiles = "C=CC(=O)N1CCN(c2ccc3ncnc(Nc4ccc(Oc5ccn6ncnc6c5)c(Cl)c4F)c3n2)C[C@H]1COC"
reported_result = 0.0077


* * *

Reported IC50 values are given for each entry in this list.
target: ErbB2 with Exon 20 YVMA insertion (HER2-YVMA) (Homo sapiens (Human), UniProt P04626, INS775YVMA); test: Cellular Phosphorylation Assay, Assay 4 (constitutive ErbB2 phosphorylation, NIH 3T3 cells); type: cell-based; conditions: ErbB2 YVMA phosphorylation
Sequence (P04626 other isoform, or with tags, fused parts or gaps ins YVMA behind 775): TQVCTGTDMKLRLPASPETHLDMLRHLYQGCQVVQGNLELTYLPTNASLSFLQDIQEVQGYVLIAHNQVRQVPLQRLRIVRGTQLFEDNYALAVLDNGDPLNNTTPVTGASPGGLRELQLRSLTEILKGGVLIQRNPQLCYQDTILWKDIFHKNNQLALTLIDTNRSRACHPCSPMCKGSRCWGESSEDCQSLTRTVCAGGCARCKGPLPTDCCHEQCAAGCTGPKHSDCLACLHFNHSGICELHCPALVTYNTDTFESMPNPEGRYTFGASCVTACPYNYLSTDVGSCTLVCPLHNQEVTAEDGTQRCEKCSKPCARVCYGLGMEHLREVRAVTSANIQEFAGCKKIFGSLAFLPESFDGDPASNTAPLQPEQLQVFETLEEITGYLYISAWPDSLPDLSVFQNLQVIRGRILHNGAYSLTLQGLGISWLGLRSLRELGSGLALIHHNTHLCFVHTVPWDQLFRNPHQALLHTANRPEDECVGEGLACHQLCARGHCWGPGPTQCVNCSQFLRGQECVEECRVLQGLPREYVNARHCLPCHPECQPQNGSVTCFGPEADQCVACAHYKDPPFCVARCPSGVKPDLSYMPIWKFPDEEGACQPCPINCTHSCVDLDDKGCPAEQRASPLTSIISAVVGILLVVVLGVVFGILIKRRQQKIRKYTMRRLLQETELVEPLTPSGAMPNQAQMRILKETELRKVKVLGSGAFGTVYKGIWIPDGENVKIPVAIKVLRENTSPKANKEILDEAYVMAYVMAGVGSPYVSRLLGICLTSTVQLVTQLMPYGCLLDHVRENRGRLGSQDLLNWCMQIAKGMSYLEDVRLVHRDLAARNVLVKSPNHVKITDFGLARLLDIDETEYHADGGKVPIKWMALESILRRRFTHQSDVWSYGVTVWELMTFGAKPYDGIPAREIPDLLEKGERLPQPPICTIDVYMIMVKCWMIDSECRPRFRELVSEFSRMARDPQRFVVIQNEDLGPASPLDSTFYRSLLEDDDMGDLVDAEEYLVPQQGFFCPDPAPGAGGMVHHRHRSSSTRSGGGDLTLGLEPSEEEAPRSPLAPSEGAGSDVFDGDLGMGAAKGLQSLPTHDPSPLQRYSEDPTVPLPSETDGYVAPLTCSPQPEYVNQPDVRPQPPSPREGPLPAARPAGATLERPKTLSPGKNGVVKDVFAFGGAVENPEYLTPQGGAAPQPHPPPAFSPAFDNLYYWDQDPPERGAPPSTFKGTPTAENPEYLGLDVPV
MEASUREMENT_NAME: IC50 (nM)

[[record]]
compound = "C=CC(=O)N(C)c1ccc2ncnc(Nc3ccc(Oc4ccc5c(c4)ncn5C)c(C)c3)c2n1"
unit_abbrev = "nM"
reported_result = 63.9

[[record]]
compound = "C=CC(=O)N1CCN(c2nc3c(Nc4ccc(Oc5ccc6cn(C)nc6c5)c(C)c4)ncnc3cc2OC)CC1"
unit_abbrev = "nM"
reported_result = 16.5

[[record]]
compound = "C=CC(=O)N1CC2CC(C1)N2c1ccc2ncnc(Nc3ccc(Oc4ccn5ncnc5c4)c(C)c3F)c2n1"
unit_abbrev = "nM"
reported_result = 18.2

[[record]]
compound = "C=CC(=O)N1CCCC[C@@H](c2ccc3ncnc(Nc4ccc(Oc5ccc6c(c5)ncn6C)c(C)c4F)c3n2)C1 (racemic)"
unit_abbrev = "nM"
reported_result = 15.3

[[record]]
compound = "C=CC(=O)N1[C@@H]2CC[C@H]1C[C@@H](c1ccc3ncnc(Nc4ccc(Oc5ccn6ncnc6c5)c(C)c4)c3n1)C2"
unit_abbrev = "nM"
reported_result = 29.5

[[record]]
compound = "C=CC(=O)N1CCC(Oc2ccc3ncnc(Nc4ccc(Oc5ccn6ccnc6c5)c(C)c4)c3n2)CC1"
unit_abbrev = "nM"
reported_result = 12.8


* * *

molecular target: EGFR wild type (EGFR WT) (Homo sapiens (Human), UniProt P00533); assay: Cellular Phosphorylation Assay, Assay 5 (EGF-stimulated EGFR phosphorylation, NIH 3T3 cells); type: cell-based; conditions: EGF-stimulated EGFR WT phosphorylation
Sequence (P00533 25-1210): as the sequence (P00533 25-1210) above
pIC50: −log10 of the molar value.
pIC50 listing for selected compounds.
MEASUREMENT_NAME: pIC50

[[record]]
compound = "C=CC(=O)N1C[C@H]2C[C@@H]1[C@H](c1ccc3ncnc(Nc4ccc(Oc5ccc6c(c5)ncn6C)c(C)c4F)c3n1)C2 (racemic)"
measurement_name = "pIC50"
censor_symbol = "="
reported_result = 5.37

[[record]]
compound = "C=CC(=O)N1CC[C@@H]2CN(c3ccc4ncnc(Nc5ccc(Oc6ccn7ncnc7c6)c(C)c5F)c4n3)C[C@@H]21"
measurement_name = "pIC50"
censor_symbol = "≤"
reported_result = 5.30

[[record]]
compound = "C=CC(=O)N1CCC(c2ccc3ncnc(Nc4ccc(Oc5ccc6c(c5)ncn6C)c(C)c4)c3n2)C(C)C1 (centres unmarked)"
measurement_name = "pIC50"
censor_symbol = "≤"
reported_result = 5.30

[[record]]
compound = "CC#CC(=O)N1CCC[C@@H](c2ccc3ncnc(Nc4ccc(Oc5ccn6ncnc6c5)c(C)c4F)c3n2)CC1 (single isomer, unassigned) [Example 212]"
measurement_name = "pIC50"
censor_symbol = "≤"
reported_result = 5.30

[[record]]
compound = "C=CC(=O)N1CC[C@@H](c2ccc3ncnc(Nc4ccc(Oc5ccc6c(c5)ncn6C)c(C)c4F)c3n2)C1 (racemic)"
measurement_name = "pIC50"
censor_symbol = "="
reported_result = 5.32


* * *

# pIC50 values compiled below
target: ErbB2 WT (Homo sapiens (Human)); assay: ErbB Enzyme Assay (HTRF KinEASE-TK), Assay 2; format: biochemical; conditions: ErbB2 WT enzyme
pIC50: −log10 of the molar value.
MEASUREMENT_NAME: pIC50

[[record]]
compound = "C=CC(=O)N1C2CC1CN(c1ccc3ncnc(Nc4cc(Cl)c(Oc5cnc6c(c5)ncn6C)cc4F)c3n1)C2"
measurement_name = "pIC50"
reported_result = 6.45

[[record]]
compound = "C=CC(=O)N1C[C@@H](c2ccc3ncnc(Nc4cc(C)c(Oc5ccc6c(c5)ncn6C)cc4F)c3n2)C[C@@H]1C"
measurement_name = "pIC50"
reported_result = 7.39

[[record]]
compound = "C=CC(=O)N1C[C@H]2C[C@H](c3ccc4ncnc(Nc5ccc(Oc6ccn7ncnc7c6)c(C)c5F)c4n3)C[C@H]2C1"
measurement_name = "pIC50"
reported_result = 7.79

[[record]]
compound = "C=CS(=O)(=O)Nc1ccc2ncnc(Nc3ccc(Oc4ccc5c(c4)ncn5C)c(C)c3)c2n1"
measurement_name = "pIC50"
reported_result = 7.32

[[record]]
compound = "CC#CC(=O)N1CCN(c2ccc3ncnc(Nc4ccc(Oc5ccn6ncnc6c5)c(Cl)c4F)c3n2)C[C@@H]1C(F)(F)F"
measurement_name = "pIC50"
reported_result = 8.21

[[record]]
compound = "C=CC(=O)N1CC2CCC(C1)N2c1ccc2ncnc(Nc3ccc(Oc4cnc5c(c4)ncn5C)c(C)c3F)c2n1"
measurement_name = "pIC50"
reported_result = 7.33

[[record]]
compound = "C=CC(=O)N1CCN(c2ccc3ncnc(Nc4cc(C)c(Oc5ccc6c(c5)ncn6C)cc4F)c3n2)CC1(C)C"
measurement_name = "pIC50"
reported_result = 7.24

[[record]]
compound = "C=CC(=O)N1[C@@H]2CC[C@H]1C[C@@H](c1ccc3ncnc(Nc4ccc(Oc5ccn6ncnc6c5)c(Cl)c4F)c3n1)C2"
measurement_name = "pIC50"
reported_result = 7.67

[[record]]
compound = "C=CC(=O)N1CCC[C@@H](c2ccc3ncnc(Nc4ccc(Oc5ccn6ncnc6c5)c(C)c4F)c3n2)CC1 (single isomer, unassigned) [Example 210]"
measurement_name = "pIC50"
reported_result = 7.97

[[record]]
compound = "C=CC(=O)N1C2CC1CN(c1ccc3ncnc(Nc4cc(Cl)c(Oc5ccn6ncnc6c5)cc4F)c3n1)C2"
measurement_name = "pIC50"
reported_result = 7.09

[[record]]
compound = "C=CC(=O)N1CC[C@@H]2C[C@H]1CN2c1ccc2ncnc(Nc3cc(Cl)c(Oc4ccn5ncnc5c4)cc3F)c2n1"
measurement_name = "pIC50"
reported_result = 8.01

[[record]]
compound = "C=C(F)C(=O)N1CCN(c2ccc3ncnc(Nc4ccc(Oc5ccn6ncnc6c5)c(C)c4F)c3n2)CC1(C)C"
measurement_name = "pIC50"
reported_result = 7.00

[[record]]
compound = "C=CC(=O)N1CCN(c2ccc3ncnc(Nc4ccc(Oc5ccn6ncnc6c5)c(Cl)c4F)c3n2)C[C@@H]1C(F)(F)F"
measurement_name = "pIC50"
reported_result = 8.64

[[record]]
compound = "Cc1c(Oc2ccn3ncnc3c2)ccc(Nc2ncnc3ccc(N4C[C@@H]5CCN(C(=O)C67CC6C7)[C@@H]5C4)nc23)c1F (stereo partly drawn)"
measurement_name = "pIC50"
reported_result = 6.31

[[record]]
compound = "C=CC(=O)N1CC[C@H]2C[C@@H]1CN2c1ccc2ncnc(Nc3ccc(Oc4cnc5c(c4)ncn5C)c(C)c3F)c2n1"
measurement_name = "pIC50"
reported_result = 5.88

